Hello, the source for this data is patent US20200339625A1, in case you need it.

Tested on: mice bearing PSMA-expressing LNCAP cancer xenografts
Assay: Biodistribution of 68Ga-labeled compounds
Assay type: in vivo
Settings: 1 h post-injection
Measured parameter: Testes uptake (% ID/g)

Take a look at these entries with their results.
Compound	Testes uptake [% ID/g]
O=C([O-])CN1CCN(CC(=O)[O-])CCN(CC(=O)NCCCC[C@H](NC(=O)CNC(=O)CCc2ccccc2)C(=O)NC[C@H]2CC[C@H](C(=O)N[C@@H](Cc3ccc4ccccc4c3)C(=O)NCCCC[C@H](NC(=O)N[C@@H](CCC(=O)O)C(=O)O)C(=O)O)CC2)CCN(CC(=O)[O-])CC1.[68Ga+3] [^68Ga-HTK03082]	0.42
O=C([O-])CN1CCN(CC(=O)[O-])CCN(CC(=O)NCCCC[C@H](NC(=O)CNC(=O)CCCc2ccc(Cl)cc2)C(=O)NC[C@H]2CC[C@H](C(=O)N[C@@H](Cc3ccc4ccccc4c3)C(=O)NCCCC[C@H](NC(=O)N[C@@H](CCC(=O)O)C(=O)O)C(=O)O)CC2)CCN(CC(=O)[O-])CC1.[68Ga+3] [^68Ga-HTK03055]	2.54

[1] O=C([O-])CN1CCN(CC(=O)[O-])CCN(CC(=O)NCC2CCC(C(=O)NC(Cc3ccc4ccc5cccc6ccc3c4c56)C(=O)NCCCCC(NC(=O)NC(CCC(=O)O)C(=O)O)C(=O)O)CC2)CCN(CC(=O)[O-])CC1.[68Ga+3] (stereo not shown) [^68Ga-HTK03029]
[2] CCCCCCC(NC(=O)C1CCC(CNC(=O)CN2CCN(CC(=O)[O-])CCN(CC(=O)[O-])CCN(CC(=O)[O-])CC2)CC1)C(=O)NCCCCC(NC(=O)NC(CCC(=O)O)C(=O)O)C(=O)O.[68Ga+3] (stereo not shown) [^68Ga-HTK03026]
Data request: Given the listed items, does 1 or 2 have the lesser reported Testes uptake? Return value: the label identifying the chosen record.
Data returned: 2

====

Test system: mice bearing PSMA-expressing LNCAP cancer xenografts
Assay: Biodistribution of 68Ga-labeled compounds
Assay type: in vivo
Settings: 1 h post-injection
Measured parameter: Testes uptake (% ID/g)
Quick note: give the figure in % ID/g, leave out the unit.

Compound	Uom	Testes uptake
O=C([O-])CN1CCN(CC(=O)[O-])CCN(CC(=O)NCCCC[C@H](NC(=O)CNC(=O)CCCc2ccc(I)cc2)C(=O)NC[C@H]2CC[C@H](C(=O)N[C@@H](Cc3ccc4ccccc4c3)C(=O)NCCCC[C@H](NC(=O)N[C@@H](CCC(=O)O)C(=O)O)C(=O)O)CC2)CCN(CC(=O)[O-])CC1.[68Ga+3] [^68Ga-HTK03024]	% ID/g	2.98
O=C([O-])CN1CCN(CC(=O)[O-])CCN(CC(=O)NCC2CCC(C(=O)NC(Cc3ccc4cc5ccccc5cc4c3)C(=O)NCCCCC(NC(=O)NC(CCC(=O)O)C(=O)O)C(=O)O)CC2)CCN(CC(=O)[O-])CC1.[68Ga+3] (stereo not shown) [^68Ga-HTK03027]	% ID/g	0.56
Nc1ccc(CCCC(=O)NCC(=O)N[C@@H](CCCCNC(=O)CN2CCN(CC(=O)[O-])CCN(CC(=O)[O-])CCN(CC(=O)[O-])CC2)C(=O)NC[C@H]2CC[C@H](C(=O)N[C@@H](Cc3ccc4ccccc4c3)C(=O)NCCCC[C@H](NC(=O)N[C@@H](CCC(=O)O)C(=O)O)C(=O)O)CC2)cc1.[68Ga+3] [^68Ga-HTK03087]	% ID/g	0.48

Now look at this entry.
Entry under test: Cc1ccc(CCCC(=O)NCC(=O)N[C@@H](CCCCNC(=O)CN2CCN(CC(=O)[O-])CCN(CC(=O)[O-])CCN(CC(=O)[O-])CC2)C(=O)NC[C@H]2CC[C@H](C(=O)N[C@@H](Cc3ccc4ccccc4c3)C(=O)NCCCC[C@H](NC(=O)N[C@@H](CCC(=O)O)C(=O)O)C(=O)O)CC2)cc1.[68Ga+3] [^68Ga-HTK03090] . Its Testes uptake was 1.95
